Entries and their GE-HTS
System: OXPHOS gene expression
Assay type: cell-based, mouse
condition context: composite Z-score vs DMSO; Conc 20 μM
recorded metric: GE-HTS

molecule="c1ccc2c(c1)CN1CCCC1=N2 [desoxypeganine]" test_system="OXPHOS gene expression" recorded_metric=GE-HTS assay_value=0.631
molecule="NCCCCCN [cadaverine]" test_system="OXPHOS gene expression" recorded_metric=GE-HTS assay_value=−0.553
molecule="O=C(O)c1cccc(O)c1O [pyrocatechuic acid]" test_system="OXPHOS gene expression" recorded_metric=GE-HTS assay_value=−0.386
molecule="N[C@@H](CCC(=O)N[C@@H](CSC(CC(=O)O)C(=O)O)C(=O)NCC(=O)O)C(=O)O (stereo partly drawn) [S-(1,2-dicarboxyethyl)glutathione]" test_system="OXPHOS gene expression" recorded_metric=GE-HTS assay_value=−0.364
molecule="COc1cc2c(cc1OC)[C@@H]1C(=O)c3ccc4c(c3O[C@@H]1CO2)CC(C(C)C)O4 (some centres unmarked) [dihydrorotenone, reference compound]" test_system="OXPHOS gene expression" recorded_metric=GE-HTS assay_value=−2.179
molecule="COc1cc(O)c(C(=O)/C=C/c2ccccc2)c(OC)c1 [flavokawain B]" test_system="OXPHOS gene expression" recorded_metric=GE-HTS assay_value=−1.453
molecule="C[C@@H]1C[C@@H]([C@H](O)CC2CC(=O)NC(=O)C2)C(=O)[C@@H](C)C1 [Cycloheximide, reference compound]" test_system="OXPHOS gene expression" recorded_metric=GE-HTS assay_value=−1.482
molecule="CCCCCc1c2c(cc(O)c1C(=O)O)OC(=O)c1c(cc(OC)cc1C(=O)CCCC)O2 [lobaric acid]" test_system="OXPHOS gene expression" recorded_metric=GE-HTS assay_value=−0.455

---

Entries and their ΔΨm
System: mitochondrial membrane potential
Assay type: cell-based, mouse
condition context: 20 μM; composite Z-score vs DMSO
Where a SMILES comes first, the peptide text is derived from it. Bridges are numbered along the chain shown (N, C = ends). [ ]: non-standard residue; d: D form. The star is where a group is joined. Ileψ(thiazoline)Cys = CC[C@H](C)[C@H](N)C1=N[C@H](C(=O)*)CS1; dOrn = NCCC[C@@H](N)C(=O)O
recorded metric: ΔΨm

compound="CCN(CC)CCNC(=O)COc1ccc(OC)cc1 [mefexamide]" assay_value=−0.643
compound=Cc1cc(N)c2ccccc2[n+]1CCCCCCCCCC[n+]1c(C)cc(N)c2ccccc21 assay_value=−2.506
compound=Nc1ccc(/N=N/c2ccccc2)c(N)n1 assay_value=1.263
compound=CN(C)C(=S)SSC(=S)N(C)C assay_value=−4.011
compound="CC[C@H](C)[C@H](N)C1=N[C@H](C(=O)N[C@@H](CC(C)C)C(=O)N[C@H](CCC(=O)O)C(=O)N[C@H](C(=O)N[C@H]2CCCCNC(=O)[C@H](CC(N)=O)NC(=O)[C@@H](CC(=O)O)NC(=O)[C@H](Cc3cnc[nH]3)NC(=O)[C@@H](Cc3ccccc3)NC(=O)[C@H]([C@@H](C)CC)NC(=O)[C@@H](CCCN)NC2=O)[C@@H](C)CC)CS1 [bacitracin] ({Ileψ(thiazoline)Cys}-L[dE]IK[dOrn]I[dF]H[dD]N; lactam 4-C)" assay_value=−0.113
compound="CN1Cc2c(N)cccc2C(c2ccccc2)C1 (stereo not shown)" assay_value=−0.059
compound=CCOC(=O)[C@H](CCc1ccccc1)N[C@@H](C)C(=O)N1Cc2ccccc2C[C@H]1C(=O)O assay_value=−0.276
